Data origin, for the record: ChEMBL document CHEMBL1649064

half-life overview
EXPERIMENT_SUMMARY: Half life in mouse microsomes by LC-MS/MS analysis
Format: ADME, Microsome

# COMPOUND, half-life
records = [
    ("COc1cccc(-c2c(OC)cc(NC(C)CCCN)c3nc(OC)cc(C)c23)c1.O=C(O)CCC(=O)O (stereo not drawn)", "> 1 h"),
]

For reference, reported half-life for COc1cc(C)c2c(-c3cccc(C(F)(F)F)c3)c(OC)cc(NC(C)CCCN)c2n1.O=C(O)CCC(=O)O (stereo not drawn) stands at > 1 h

For reference, reported half-life for COc1cc(NC(C)CCCN)c2nc(C(F)(F)F)cc(C)c2c1-c1ccccc1.O=C(O)CCC(=O)O (stereo not drawn) stands at > 1 h

For reference, reported half-life for COc1cc(NC(C)CCCNC(=O)OC(C)(C)C)c2nc(C(F)(F)F)cc(C)c2c1-c1cccc(C)c1 (stereo not drawn) stands at 0.183 h

For reference, reported half-life for COc1cccc(-c2c(OC)cc(NC(C)CCCN)c3nc(C(F)(F)F)cc(C)c23)c1.O=C(O)CCC(=O)O (stereo not drawn) stands at > 1 h

====

Tested on: Plasmodium falciparum
EXPERIMENT_SUMMARY: Antimalarial activity against mefloquine-susceptible Plasmodium falciparum CDC Indochina 3 W2 after 48 hrs by [3H]hypoxanthine uptake assay
Format: functional, organism-based
READOUT_KIND: IC50 (µg/mL)
Value expressed in µg/mL; do not type the unit.

These solved cases illustrate the format of a correct answer.
# COMPOUND, EXPERIMENTAL_SYSTEM, QUANTITATIVE_READOUT
records = [
    ("COc1cc(NC(C)CCCNC(=O)OC(C)(C)C)c2nc(C(F)(F)F)cc(C)c2c1-c1cccc(C(F)(F)F)c1 (centres undefined)", "Plasmodium falciparum", 2.8),
    ("COc1cccc(-c2c(OC)cc(NC(C)CCCNC(=O)OC(C)(C)C)c3nc(C(F)(F)F)cc(C)c23)c1 (centres undefined)", "Plasmodium falciparum", 0.6),
    ("COc1cc(NC(C)CCCN)c2nc(C(F)(F)F)cc(C)c2c1-c1cccc(C)c1.O=C(O)CCC(=O)O (centres undefined)", "Plasmodium falciparum", 0.9),
]

Could you now look at the following compound, please?
For reference, reported IC50 for COc1cccc(-c2c(OC)cc(NC(C)CCCN)c3nc(OC)cc(C)c23)c1.O=C(O)CCC(=O)O (centres undefined) stands at 0.8

====

Test system: Plasmodium falciparum
EXPERIMENT_SUMMARY: Antimalarial activity against mefloquine-resistant Plasmodium falciparum CDC Sierra Leone 1 D6 after 48 hrs by [3H]hypoxanthine uptake assay
Assay type: functional, organism-based
READOUT_KIND: IC50

For reference, reported IC50 for COc1cccc(-c2c(OC)cc(NC(C)CCCN)c3nc(OC)cc(C)c23)c1.O=C(O)CCC(=O)O (configuration not stated) stands at 2.8 mg/L

For reference, reported IC50 for COc1cc(C)c2c(-c3cccc(C(F)(F)F)c3)c(OC)cc(NC(C)CCCN)c2n1.O=C(O)CCC(=O)O (configuration not stated) stands at 2.7 mg/L

For reference, reported IC50 for COc1cc(NC(C)CCCN)c2nc(C(F)(F)F)cc(C)c2c1-c1ccc(C(F)(F)F)cc1.O=C(O)CCC(=O)O (configuration not stated) stands at 1.7 mg/L
